test system: mice; experiment: Anticonvulsant effect against minimal electroshock, mice; assay type: in vivo; settings: relative to chlordiazepoxide = 1.00, larger value = less effective
Decision: Relative potency, anticonvulsant effect, minimal electro shock compared against 0.5; not below it gives T, below it gives F.

# compound, targetEntity, qualitativeLabel
rows = [
    ("CC1N=C(c2ccccc2)c2cc(Cl)ccc2NC1=O (racemic) [20 (Rac.)]", "mice", "T"),
    ("O=C1Nc2ccc(Cl)cc2C(c2ccccc2)=NC1Cc1ccc(O)cc1 (racemic) [22 (Rac.)]", "mice", "T"),
    ("CC(C)C1N=C(c2ccccc2)c2cc(Cl)ccc2NC1=O (racemic) [25 (Rac.)]", "mice", "T"),
    ("CN1CCN=C(c2ccccc2)c2cc(Cl)ccc21 [Medazepam]", "mice", "F"),
    ("C[C@@H](O)[C@@H]1N=C(c2ccccc2)c2cc(Cl)ccc2NC1=O [24 (S)]", "mice", "F"),
    ("CC(C)[C@@H]1N=C(c2ccccc2)c2cc(Cl)ccc2NC1=O [25 (S)]", "mice", "F"),
]

Moving on to another compound below.
INPUT: # check: Relative potency, anticonvulsant effect, minimal electro shock of C[C@@H]1N=C(c2ccccc2)c2cc(Cl)ccc2NC1=O [20 (S)] is greater than or equal to 0.5
OUTPUT: F
